Target: TYK2 (Homo sapiens, UniProt P29597)
Construct: Degradation of TYK2 in cells was quantitatively measured using Meso Scale Discovery (MSD) technology; endogenous in cells; host or cells: OCI-LY10
Sequence (P29597 whole entry): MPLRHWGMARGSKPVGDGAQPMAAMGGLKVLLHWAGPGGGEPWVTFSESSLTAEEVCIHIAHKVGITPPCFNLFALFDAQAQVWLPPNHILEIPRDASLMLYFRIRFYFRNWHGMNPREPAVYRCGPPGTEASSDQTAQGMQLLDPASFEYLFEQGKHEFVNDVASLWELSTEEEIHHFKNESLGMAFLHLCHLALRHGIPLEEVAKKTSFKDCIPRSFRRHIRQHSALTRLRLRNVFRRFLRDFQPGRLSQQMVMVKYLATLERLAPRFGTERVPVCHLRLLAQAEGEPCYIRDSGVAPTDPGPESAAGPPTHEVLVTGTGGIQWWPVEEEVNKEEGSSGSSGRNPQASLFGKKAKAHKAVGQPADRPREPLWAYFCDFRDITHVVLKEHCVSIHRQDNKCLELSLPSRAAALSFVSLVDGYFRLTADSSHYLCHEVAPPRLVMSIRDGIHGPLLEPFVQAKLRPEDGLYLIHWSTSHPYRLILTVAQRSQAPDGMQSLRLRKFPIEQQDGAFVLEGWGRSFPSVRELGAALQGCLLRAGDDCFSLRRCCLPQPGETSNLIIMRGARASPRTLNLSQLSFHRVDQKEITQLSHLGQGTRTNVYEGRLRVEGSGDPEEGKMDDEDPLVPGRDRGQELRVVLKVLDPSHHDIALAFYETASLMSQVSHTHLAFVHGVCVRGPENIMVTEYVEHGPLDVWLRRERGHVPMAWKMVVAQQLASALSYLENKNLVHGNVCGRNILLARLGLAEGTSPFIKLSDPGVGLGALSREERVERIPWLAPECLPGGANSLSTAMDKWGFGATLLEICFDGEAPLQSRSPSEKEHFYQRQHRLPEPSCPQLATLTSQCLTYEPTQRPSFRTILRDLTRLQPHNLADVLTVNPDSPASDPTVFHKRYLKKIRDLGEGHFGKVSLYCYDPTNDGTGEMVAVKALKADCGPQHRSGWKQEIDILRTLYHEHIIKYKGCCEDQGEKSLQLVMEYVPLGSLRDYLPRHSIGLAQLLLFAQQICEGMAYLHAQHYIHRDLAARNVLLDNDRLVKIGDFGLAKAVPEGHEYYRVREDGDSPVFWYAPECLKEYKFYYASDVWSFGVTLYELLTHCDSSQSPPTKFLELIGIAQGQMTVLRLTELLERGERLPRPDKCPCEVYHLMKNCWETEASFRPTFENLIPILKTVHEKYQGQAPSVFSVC
Experiment: TYK2 MSD degradation in OCI-LY10 cells
Type: cell-based
Conditions: TYK2 degradation in OCI-LY10 cells, 4 to 24 hours incubation
Method: Example 7. TYK2 MSD Degradation Degradation of TYK2 in cells was quantitatively measured using Meso Scale Discovery (MSD) technology. OCI-LY10 cells were seeded in 96-well plates with a density of 0.4 million cells per well in 100 μl fresh media. […] The assay plates were then incubated at room temperature for 1 hour, washed 3 times with 150 μl/well TB ST buffer, and 150 μl/well MSD reading buffer (MSD, R92TC-2) were added. The plates were then analyzed by an MSD reader. […]
Measurement kind: TYK2 MSD OCI-LY10 Dmax %

Solved cases below.
Response field TYK2 MSD OCI-LY10 Dmax % (TYK2 (Homo sapiens, UniProt P29597)) for item CNc1cc(N2CCc3c(-c4ccc(CN5CC6(CCN(Cc7ccc(C)c(N8CCC(=O)NC8=O)c7)CC6(F)F)C5)cn4)cccc32)nn2c(C(=O)N[C@@H]3C[C@@H]3F)cnc12 : D (D (<50%))

Response field TYK2 MSD OCI-LY10 Dmax % (TYK2 (Homo sapiens, UniProt P29597)) for item CNC(=O)c1cnc(Nc2ccc(C(=O)NCCOCCOCCOCCN(C(=O)C3CCCN(c4cncc5ccccc45)C3)c3ccc(=O)n(CC(=O)O)c3)cn2)cc1Nc1cccc(-c2ncccn2)c1OC (stereo not shown) : D (D (<50%))

Response field TYK2 MSD OCI-LY10 Dmax % (TYK2 (Homo sapiens, UniProt P29597)) for item CNc1cc(N2CCc3c(-c4ccc(CN5CCC6(CC5)CCN(c5ccc(C7CCC(=O)NC7=O)c(Cl)c5)CC6)cn4)cccc32)nn2c(C(=O)N[C@@H]3C[C@@H]3F)cnc12 (stereo partly shown) : D (D (<50%))

Response field TYK2 MSD OCI-LY10 Dmax % (TYK2 (Homo sapiens, UniProt P29597)) for item CNc1cc(N2CCc3c(-c4ncc(CN5CC6(CCN(C(=O)c7cc(N8CCC(=O)NC8=O)c(C)c(Cl)c7F)CC6(F)F)C5)cc4F)cccc32)nn2c(C(=O)N[C@@H]3CC[C@H]3OC)cnc12 : A (A (>90%))

Response field TYK2 MSD OCI-LY10 Dmax % (TYK2 (Homo sapiens, UniProt P29597)) for item CNc1cc(N2CCc3c(-c4ncc(CN5CC6(CCN(C(=O)c7ccc(OC)c(N8CCC(=O)NC8=O)c7)CC6(F)F)C5)cc4F)cccc32)nn2c(C(=O)N[C@@H]3C[C@@H]3F)cnc12 : A (A (>90%))

Response field TYK2 MSD OCI-LY10 Dmax % (TYK2 (Homo sapiens, UniProt P29597)) for item CNc1cc(N2CCc3c(-c4ncc(CN5CC6(CCN(C(=O)c7cc(C)c(C)c(N8CCC(=O)NC8=O)c7)CC6(F)F)C5)cc4F)cccc32)nn2c(C(=O)NC3CCC3OC)cnc12 (stereo not shown) : A (A (>90%))

Next:
Response field TYK2 MSD OCI-LY10 Dmax % (TYK2 (Homo sapiens, UniProt P29597)) for item CNc1cc(N2CCc3c(-c4ccc(CN5CC6(CCN(C(=O)c7ccc(C)c(N8CCC(=O)NC8=O)c7)CC6(F)F)C5)cn4)cc(F)cc32)nn2c(C(=O)NC3CC3F)cnc12 (stereo not shown) : A (A (>90%))

Response field TYK2 MSD OCI-LY10 Dmax % (TYK2 (Homo sapiens, UniProt P29597)) for item CNc1cc(N2CCc3c(-c4ccc(CN5CC6(CCN(Cc7ccc(N8CCC(=O)NC8=O)c(Cl)c7)CC6(F)F)C5)cn4)cccc32)nn2c(C(=O)N[C@H]3C[C@H]3F)cnc12 : D (D (<50%))

====

Target: TYK2 (Homo sapiens, UniProt P29597)
Construct: Degradation of TYK2 in cells was quantitatively measured using Meso Scale Discovery (MSD) technology; endogenous in cells; host or cells: OCI-LY10
Test: TYK2 MSD degradation in OCI-LY10 cells
Type: cell-based
Conditions: TYK2 degradation in OCI-LY10 cells, 4 to 24 hours incubation
Measurement kind: TYK2 MSD OCI-LY10 Dmax %

// TYK2 MSD OCI-LY10 Dmax % lookup, compound = CNc1cc(N2CCc3c(-c4cc(CN5CCN(c6ccc7c(c6F)n(C)c(=O)n7C6CCC(=O)NC6=O)CC5)ccn4)cccc32)nn2c(C(N)=O)cnc12 (centres unmarked) , result: B (B (90 to >75%))

// TYK2 MSD OCI-LY10 Dmax % lookup, compound = CNc1cc(N2CCc3c(-c4ncc(CN5CC6(CCN(C(=O)c7cc(N8CCC(=O)NC8=O)c(Cl)c(C)n7)CC6(F)F)C5)cc4F)cccc32)nn2c(C(=O)N[C@@H]3C[C@@H]3F)cnc12 , result: A (A (>90%))

// TYK2 MSD OCI-LY10 Dmax % lookup, compound = CNc1cc(N2CCc3c(-c4ccc(CN5CCC(N6CCN(c7ccc8c(c7F)n(C)c(=O)n8C7CCC(=O)NC7=O)CC6)C(F)(F)C5)cn4)cccc32)nn2c(C(=O)NC3CC3F)cnc12 (centres unmarked) , result: B (B (90 to >75%))

// TYK2 MSD OCI-LY10 Dmax % lookup, compound = CNc1cc(N2CCc3c(-c4ncc(CN5CCC6(CCN(C(=O)c7cc(C)c(Cl)c(N8CCC(=O)NC8=O)c7)CC6)C(F)(F)C5)cc4F)cccc32)nn2c(C(=O)N[C@@H]3CC[C@H]3OC)cnc12 , result: A (A (>90%))

====

Target: TYK2 (Homo sapiens)
Construct: Degradation of TYK2 in cells was quantitatively measured using Meso Scale Discovery (MSD) technology; endogenous in cells; host or cells: OCI-LY10
Experiment: TYK2 MSD degradation in OCI-LY10 cells
Format: cell-based
Details: TYK2 degradation in OCI-LY10 cells, 4 to 24 hours incubation, read-out: TYK2 MSD OCI-LY10 Rel-DC50
Measurement kind: DC50

// DC50 lookup, compound = CNc1cc(N2CC3(CCN(Cc4cccc5c4n(C)c(=O)n5C4CCC(=O)NC4=O)CC3)c3ccccc32)nn2c(C(=O)NC3CC3)cnc12 (centres unmarked) , result: > 100 nM

// DC50 lookup, compound = CNc1cc(N2CCc3c(CN4CCC(N5CC(N6CCN(c7cccn8c(N9CCC(=O)NC9=O)cnc78)CC6)C5)C(F)(F)C4)cccc32)nn2c(C(=O)N[C@@H]3C[C@@H]3F)cnc12 (some centres unmarked) , result: < 1 nM

// DC50 lookup, compound = CNc1cc(N2CCc3c(-c4ccc(CN5CCC(N6CCC7(CC6)CN(c6ccc8c(c6)n(C)c(=O)n8C6CCC(=O)NC6=O)C7)C(F)(F)C5)cn4)cccc32)nn2c(C(=O)NC3CC3)cnc12 (centres unmarked) , result: < 10 nM

// DC50 lookup, compound = CNC(=O)c1cnc(Nc2ccc(C(=O)NCCOCCOCCN(C(=O)[C@H]3CCCN(c4cncc5ccccc45)C3)c3ccc(=O)n(CC(=O)O)c3)cn2)cc1Nc1cccc(-c2ncccn2)c1OC , result: 10 to 100 nM

// DC50 lookup, compound = CNc1cc(N2CCc3c(-c4ccc(CC5CC6(CCN(C(c7ccc(Cl)c(N8CCC(=O)NC8=O)c7)C(F)(F)F)CC6)C5)cn4)cccc32)nn2c(C(=O)N[C@@H]3C[C@@H]3F)cnc12 (some centres unmarked) , result: > 100 nM

// DC50 lookup, compound = CNc1cc(N2CCc3c(C4CCN(CC5CC6(CCN(C(=O)c7ccc(Cl)c(N8CCC(=O)NC8=O)c7)CC6)C5)CC4)cccc32)nn2c(C(=O)NC3CC3)cnc12 , result: < 10 nM

// DC50 lookup, compound = CNc1cc(N2CCc3c(-c4ccc(CC5(F)CC6(CCN(C(=O)c7cc(N8CCC(=O)NC8=O)c(C)cc7F)CC6)C5)cn4)cccc32)nn2c(C(=O)N[C@@H]3CC[C@H]3OC)cnc12 , result: < 1 nM

// DC50 lookup, compound = CNc1cc(N2CCc3c(-c4ccc(CN5CC6(CCN(C(=O)c7ccc(Cl)c(N8CCC(=O)NC8=O)c7)CC6(F)F)C5)cn4)cccc32)nn2c(C(=O)NC3CC3)cnc12 , result: < 10 nM

// DC50 lookup, compound = CNc1cc(N2CCc3c(-c4ccc(CN5CCC6(CCC(Oc7ccc(Cl)c(N8CCC(=O)NC8=O)c7)CC6)CC5)cn4)cccc32)nn2c(C(=O)N[C@@H]3C[C@@H]3F)cnc12 , result: < 10 nM

// DC50 lookup, compound = CNc1cc(N2CCc3c(CN4CCC(N5CCC6(CCN(C(=O)c7cc(N8CCC(=O)NC8=O)c(Cl)c(C)n7)CC6)CC5)C(F)(F)C4)cc(F)cc32)nn2c(C(=O)N[C@@H]3CC[C@H]3OC)cnc12 (some centres unmarked) , result: < 1 nM

// DC50 lookup, compound = CNc1cc(N2CCc3c(-c4ccc(CN5CCC6(CC5)CCN(c5cc(Cl)cc(NC7CCC(=O)NC7=O)c5)CC6)cn4)cccc32)nn2c(C(=O)NC3CC3)cnc12 (centres unmarked) , result: > 100 nM

// DC50 lookup, compound = CNc1cc(N2CC3(CCN(CC4CCN(c5ccc6c(c5)n(C)c(=O)n6C5CCC(=O)NC5=O)CC4)CC3)c3ccccc32)nn2c(C(=O)NC3CC3)cnc12 (centres unmarked) , result: > 100 nM

// DC50 lookup, compound = CNc1cc(N2CCc3c(-c4ccc(CN5CCC6(CCN(C(=O)c7ccc(Cl)c(N8CCC(=O)NC8=O)c7)CC6)C(F)(F)C5)cn4)cccc32)nn2c(C(=O)NC3CC(C(F)(F)F)C3)cnc12 (centres unmarked) , result: 10 to 100 nM

// DC50 lookup, compound = CNc1cc(N2CCc3c(CN4CC[C@H](N5CCC6(CCN(C(=O)c7cc(Cl)c(Cl)c(N8CCC(=O)NC8=O)c7)CC6)CC5)C(F)(F)C4)cccc32)nn2c(C(=O)N[C@@H]3CC[C@H]3OC)cnc12 , result: < 1 nM

// DC50 lookup, compound = CNc1cc(N2CCc3c(CN4CCC(N5CCC6(CCN(C(=O)c7cc(N8CCC(=O)NC8=O)c(Cl)cc7F)CC6)CC5)C(F)(F)C4)cccc32)nn2c(C(=O)N[C@@H]3CC[C@H]3OC)cnc12 (some centres unmarked) , result: < 1 nM

// DC50 lookup, compound = CNc1cc(N2CCc3c(CN4CCC(N5CCC6(CCN(C(=O)c7cc(C)c(C)c(N8CCC(=O)NC8=O)c7)CC6)CC5)C(F)(F)C4)cccc32)nn2c(C(=O)N[C@@H]3CC[C@H]3OC)cnc12 (some centres unmarked) , result: < 1 nM

// DC50 lookup, compound = CNc1cc(N2CCc3c(-c4ccc(CN5CC6(CCN(C(=O)c7ccc(C)c(N8CCC(=O)NC8=O)c7)CC6)C5)cn4)cccc32)nn2c(C(=O)N[C@@H]3C[C@@H]3F)cnc12 , result: < 1 nM

// DC50 lookup, compound = CNc1cc(N2CCc3c(-c4ccc(CN5CCC6(CC5)CCN(Cc5ccc(Cl)c(N7CCC(=O)NC7=O)c5)CC6)cn4)cccc32)nn2c(C(=O)N[C@@H]3C[C@@H]3F)cnc12 , result: > 100 nM

// DC50 lookup, compound = CNc1cc(N2CCc3c(-c4ccc(N5CC6(CCN(C(=O)c7ccc(N8CCC(=O)NC8=O)c(Cl)c7)CC6)C5)cn4)cccc32)nn2c(C(=O)N[C@@H]3C[C@@H]3F)cnc12 , result: < 10 nM

// DC50 lookup, compound = CNc1cc(N2CCc3c(N4CCN(C5CCC6(CC5)CCN(c5ccc7c(c5)n(C)c(=O)n7C5CCC(=O)NC5=O)CC6)CC4)cccc32)nn2c(C(=O)NC3CC3)cnc12 (centres unmarked) , result: < 10 nM
